System: Human betaherpesvirus 5
experimentDescription: Antiviral activity against human cytomegalovirus AD169 infected in HEL cells assessed as reduction in viral plaque formation
Type: functional, organism-based
conditionLabel: Human betaherpesvirus 5, AD169, HEL
quantity: pEC50
In simple prose, pEC50 is minus the logarithm base ten of a concentration in moles per litre.

# cpdSmiles, pEC50
measured = [
    ("O=C(Cn1c(=O)ccn(CCCCCCOc2ccc(Br)cc2)c1=O)Nc1ccc(Oc2ccccc2)cc1", 6.54),
]

// next item, pEC50 requested
**Query** Reported pEC50, compound `CN(C(=O)Cn1c(=O)ccn(CCCCCOc2ccc(Br)cc2)c1=O)c1ccc(Oc2ccccc2)cc1` : ____
**Result** 6.01

* * *

experimentDescription: Cytotoxicity against human cytomegalovirus infected HEL cells assessed as alteration of cell morphology incubated for 3 days by microscopy
Type: cell-based
conditionLabel: HEL cells infected with human cytomegalovirus
quantity: MCC at 72 h

Here are 8 compounds together with their reported answers.
# cpdSmiles, MCC at 72 h
data = [
    ("O=C(Cn1c(=O)ccn(CCCCCOc2ccc(Br)cc2)c1=O)Nc1ccc(Cc2ccccc2)cc1", "4 µM"),
    ("Nc1nc(O)c2ncn(COC(CO)CO)c2n1", "> 350 µM"),
    ("O=C(Cn1c(=O)ccn(CCCCCOc2ccc(Br)cc2)c1=O)Nc1ccc(Oc2ccccc2)cc1", "20 µM"),
    ("O=C(Cn1c(=O)ccn(CCCCOCc2ccc(Br)cc2)c1=O)Nc1ccc(Oc2ccccc2)cc1", "≥ 4 µM"),
    ("O=C(Cn1c(=O)ccn(CCCCCCCCOc2ccc(Br)cc2)c1=O)Nc1ccc(Oc2ccccc2)cc1", "≥ 0.16 µM"),
    ("O=C(Cn1c(=O)ccn(CCCCOc2ccc(Br)cc2)c1=O)Nc1ccc(Oc2ccccc2)cc1", "≥ 20 µM"),
    ("CN(C(=O)Cn1c(=O)ccn(CCCCCOc2ccc(Br)cc2)c1=O)c1ccc(Oc2ccccc2)cc1", "≥ 4 µM"),
    ("O=C(Cn1c(=O)ccn(CCCCCOc2ccccc2)c1=O)Nc1ccc(Oc2ccccc2)cc1", "≥ 20 µM"),
]

**Query** Reported MCC at 72 h, compound `O=C(Cn1c(=O)ccn(CCCCCOc2cccc(Br)c2)c1=O)Nc1ccc(Oc2ccccc2)cc1` : ____
**Result** ≥ 100 µM

**Query** Next: `O=C(Cn1c(=O)ccn(CCCOc2ccc(Br)cc2)c1=O)Nc1ccc(Oc2ccccc2)cc1`
**Result** ≥ 100 µM

**Query** Next: `O=C(Cn1c(=O)ccn(CCCCCOc2ccc(Br)cc2)c1=O)Nc1ccc(OCc2ccccc2)cc1`
**Result** ≥ 20 µM

**Query** Next: `O=C(Cn1c(=O)c(I)cn(CCCCCOc2ccc(Br)cc2)c1=O)Nc1ccc(Oc2ccccc2)cc1`
**Result** 100 µM

**Query** Next: `Nc1ccn(C[C@@H](CO)OCP(=O)(O)O)c(=O)n1`
**Result** > 300 µM

* * *

Test system: HEL
experimentDescription: Cytotoxicity against Varicella zoster virus infected HEL cells assessed as cell growth inhibition incubated for 3 days by coulter counter method
conditionLabel: human, 72 h
// NB: equality with 9 µM counts as no; only CC50 strictly below is yes

As a guide, the following entries are already answered.
# cpdSmiles, classification
records = [
    ("O=C(Cn1c(=O)ccn(CCCCCCCCOc2ccc(Br)cc2)c1=O)Nc1ccc(Oc2ccccc2)cc1", "no"),
    ("O=c1[nH]c(=O)n([C@H]2C[C@H](O)[C@@H](CO)O2)cc1/C=C/Br", "no"),
    ("O=C(Cn1c(=O)ccn(CCCCCCOc2ccc(Br)cc2)c1=O)Nc1ccc(Oc2ccccc2)cc1", "no"),
    ("CN(C(=O)Cn1c(=O)ccn(CCCCCOc2ccc(Br)cc2)c1=O)c1ccc(Oc2ccccc2)cc1", "yes"),
    ("O=C(Cn1c(=O)ccn(CCCCCOc2ccc(Br)cc2)c1=O)Nc1ccc(Oc2ccccc2)cc1", "yes"),
]

**Query** # strict comparison: is reported CC50 < 9 µM? input = `O=C(Cn1c(=O)ccn(CCCCOc2ccc(Br)cc2)c1=O)Nc1ccc(Oc2ccccc2)cc1`
**Result** yes

**Query** Next: `O=C(Cn1c(=O)ccn(CCCOc2ccc(Br)cc2)c1=O)Nc1ccc(Oc2ccccc2)cc1`
**Result** no
